# TARGET DESC: EHMT2 (Homo sapiens, UniProt Q96KQ7)
# Construct: endogenous in cells; host or cells: MDA-MB-231 (ATCC)
# PROTOCOL: MDA-MB-231 H3K9me2 in-cell Western assay (EHMT2 ICW)
# Assay type: cell-based
MEASURE NAME: IC50

Problem: Which IC50 is listed for COc1cc2c(cc1OCCCN1CCCC1)N=C(N)C21CCOC1 (stereo not shown) [Compound 7] ?
Solution: 100 to 1000 nM

###

# TARGET DESC: EHMT1 (Homo sapiens, UniProt Q9H9B1)
# Sequence (Q9H9B1 whole entry, species assumed): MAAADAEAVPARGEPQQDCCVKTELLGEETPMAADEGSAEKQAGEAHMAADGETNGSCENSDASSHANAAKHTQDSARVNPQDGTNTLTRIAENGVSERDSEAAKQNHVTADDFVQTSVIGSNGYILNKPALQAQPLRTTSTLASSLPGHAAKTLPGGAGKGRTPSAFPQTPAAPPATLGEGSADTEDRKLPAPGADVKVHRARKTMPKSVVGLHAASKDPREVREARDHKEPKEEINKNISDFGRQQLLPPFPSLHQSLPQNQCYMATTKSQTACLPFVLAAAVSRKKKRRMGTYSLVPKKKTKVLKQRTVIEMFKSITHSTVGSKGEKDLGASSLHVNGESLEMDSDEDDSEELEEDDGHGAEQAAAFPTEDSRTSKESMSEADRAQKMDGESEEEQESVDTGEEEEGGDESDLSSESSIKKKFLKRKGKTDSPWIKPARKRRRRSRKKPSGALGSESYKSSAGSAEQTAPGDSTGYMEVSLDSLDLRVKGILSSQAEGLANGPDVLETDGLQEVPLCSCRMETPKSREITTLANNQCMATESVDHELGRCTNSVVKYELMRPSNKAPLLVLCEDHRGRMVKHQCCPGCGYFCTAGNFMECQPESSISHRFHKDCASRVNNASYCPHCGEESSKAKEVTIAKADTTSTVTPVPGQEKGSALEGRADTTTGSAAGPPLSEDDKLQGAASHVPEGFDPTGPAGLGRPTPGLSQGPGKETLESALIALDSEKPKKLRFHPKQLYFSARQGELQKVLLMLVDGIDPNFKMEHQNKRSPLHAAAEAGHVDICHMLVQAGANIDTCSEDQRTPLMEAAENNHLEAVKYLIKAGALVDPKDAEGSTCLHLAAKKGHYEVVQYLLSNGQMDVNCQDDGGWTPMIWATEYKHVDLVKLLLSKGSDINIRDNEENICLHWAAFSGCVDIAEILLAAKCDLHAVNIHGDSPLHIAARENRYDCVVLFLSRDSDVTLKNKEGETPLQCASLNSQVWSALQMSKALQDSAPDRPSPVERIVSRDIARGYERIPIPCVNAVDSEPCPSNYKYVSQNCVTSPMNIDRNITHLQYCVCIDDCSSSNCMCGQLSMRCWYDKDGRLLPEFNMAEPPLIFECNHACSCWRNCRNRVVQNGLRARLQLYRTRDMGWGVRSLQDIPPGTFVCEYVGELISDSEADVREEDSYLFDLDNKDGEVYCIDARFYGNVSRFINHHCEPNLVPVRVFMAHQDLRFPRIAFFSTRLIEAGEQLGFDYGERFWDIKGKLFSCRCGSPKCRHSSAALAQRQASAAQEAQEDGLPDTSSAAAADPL
# PROTOCOL: EHMT1 PEP
# Format: biochemical
IC50 values, listed per item

# count of solved cases: 8
COMPOUND | IC50
CNC1=Nc2cc(C#CCN3CCC(O)C3)c(OC)cc2C12CCC2 (stereo not drawn) | < 0.1 µM
CNC1=Nc2cc(C#CCN3CCC(F)C3)c(OC)cc2C12CCC2 (stereo not drawn) | 0.1 to 1 µM
CCNc1nc2cc(OCCCN3CCCC3)c(OC)cc2n1C | < 0.1 µM
COc1cc2c(cc1OCCCN1CCCC1)nc(C1CCCC1)n2C | 1 to 10 µM
COc1cc2c(cc1OCCCN1CCCC1)N=C(N)C21CCOC1 (stereo not drawn) | < 0.1 µM
CNC1=Nc2cc(C#CCN3CCCC3)c(OC)cc2C12CCC2 | < 0.1 µM
CCOc1cc2c(cc1OCCCN1CCCC1)N=C(N)C21CCC1 | < 0.1 µM
CCCNC1=Nc2cc(CNCCN3CCCC3)c(OC)cc2C12CCC2 | < 0.1 µM

Field: next compound
Problem: Param readout= IC50; system= EHMT1 (Homo sapiens, UniProt Q9H9B1); entry= COc1cc2c(cc1OCCCN1CC[C@@H](O)C1)N=C(N)C21CCC1 ; returns value.
Solution: < 0.1 µM

###

IC50 values, listed per item
# TARGET DESC: EHMT2 (Homo sapiens)
# Construct: endogenous in cells; host or cells: MDA-MB-231 (ATCC)
# Sequence (Q96KQ7 1-1210): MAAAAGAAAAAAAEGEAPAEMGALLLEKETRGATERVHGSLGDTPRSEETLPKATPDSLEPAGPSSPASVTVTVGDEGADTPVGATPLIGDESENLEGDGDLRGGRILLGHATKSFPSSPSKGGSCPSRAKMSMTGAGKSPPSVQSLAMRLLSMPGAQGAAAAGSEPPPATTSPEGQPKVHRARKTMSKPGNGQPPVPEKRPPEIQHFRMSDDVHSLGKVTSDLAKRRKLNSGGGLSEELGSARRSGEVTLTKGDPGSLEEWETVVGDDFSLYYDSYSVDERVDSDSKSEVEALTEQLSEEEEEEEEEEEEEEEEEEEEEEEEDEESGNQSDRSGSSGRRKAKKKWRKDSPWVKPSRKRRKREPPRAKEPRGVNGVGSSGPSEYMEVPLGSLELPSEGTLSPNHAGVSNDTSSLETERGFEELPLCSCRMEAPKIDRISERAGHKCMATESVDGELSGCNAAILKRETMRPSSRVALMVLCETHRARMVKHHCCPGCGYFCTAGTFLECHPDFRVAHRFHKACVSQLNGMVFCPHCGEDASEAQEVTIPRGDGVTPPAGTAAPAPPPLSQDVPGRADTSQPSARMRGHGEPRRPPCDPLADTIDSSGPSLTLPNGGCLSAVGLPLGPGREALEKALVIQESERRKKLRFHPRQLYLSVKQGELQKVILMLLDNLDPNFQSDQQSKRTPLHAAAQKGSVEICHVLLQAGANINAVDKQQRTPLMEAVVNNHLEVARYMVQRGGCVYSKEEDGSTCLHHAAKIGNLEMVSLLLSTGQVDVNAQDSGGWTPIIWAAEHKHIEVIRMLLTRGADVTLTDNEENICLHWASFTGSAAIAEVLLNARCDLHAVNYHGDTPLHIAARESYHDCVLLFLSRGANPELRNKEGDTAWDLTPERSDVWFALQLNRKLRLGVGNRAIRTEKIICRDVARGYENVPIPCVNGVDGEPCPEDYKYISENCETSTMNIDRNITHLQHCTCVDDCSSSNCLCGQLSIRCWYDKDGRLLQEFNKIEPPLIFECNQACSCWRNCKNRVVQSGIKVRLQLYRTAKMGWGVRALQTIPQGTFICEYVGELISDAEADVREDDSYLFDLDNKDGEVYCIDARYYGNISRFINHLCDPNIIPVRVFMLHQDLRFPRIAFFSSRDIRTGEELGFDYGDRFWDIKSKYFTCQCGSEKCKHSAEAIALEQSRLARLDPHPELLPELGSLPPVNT
# PROTOCOL: MDA-MB-231 H3K9me2 in-cell Western assay (EHMT2 ICW)
# Assay type: cell-based
# MEASUREMENT CONDITIONS: MDA-MB-231 cells, H3K9me2 in-cell Western; read-out: EHMT2 ICW (IC50 μM)

# count of solved cases: 3
COMPOUND | MEASURE NAME | MEASURED
CCNC1=Nc2cc(CNCCN3CCCC3)c(OC)cc2C12CCC2 | IC50 | 1 to 10 µM
COc1cc2c(cc1OCCCN1CCCC1)nc(N)n2C1CCCC1 | IC50 | 0.1 to 1 µM
COc1cc2c(cc1OCCCN1CCCC1)nc(C)n2C1CCCC1 | IC50 | 1 to 10 µM

Problem: Which IC50 is listed for CNc1nc2cc(OCCCN3CCCC3)c(OC)cc2n1C ?
Solution: < 0.1 µM

Problem: Which IC50 is listed for COc1cc2c(cc1CNCCN1CCCC1)N=C(NC1CCOCC1)C21CCC1 ?
Solution: 1 to 10 µM

Problem: Which IC50 is listed for COc1cc2c(cc1OC[C@H](O)CN1CCCC1)nc(NC1CCOCC1)n2C ?
Solution: > 10 µM

Problem: Which IC50 is listed for COc1cc2c(cc1OC[C@H](O)CN1CCCC1)nc(NC1CCCC1)n2C ?
Solution: 1 to 10 µM

Problem: Which IC50 is listed for CCNC1=Nc2cc(CNCCN3CCC3)c(OC)cc2C12CCC2 ?
Solution: 1 to 10 µM

Problem: Which IC50 is listed for CNc1nc2cc(CNCCN3CCCC3)c(OC)cc2n1C(C)C ?
Solution: 1 to 10 µM

Problem: Which IC50 is listed for CCN1CC(COc2cc3nc(N)n(C4CCCC4)c3cc2OC)C1 ?
Solution: 0.1 to 1 µM

Problem: Which IC50 is listed for CCCNC1=Nc2cc(CNCCN3CCCC3)c(OC)cc2C12CCC2 ?
Solution: 0.1 to 1 µM

Problem: Which IC50 is listed for COc1cc2[nH]c(N)nc2cc1OCCCN1CCCC1 ?
Solution: 1 to 10 µM

Problem: Which IC50 is listed for CCn1c(NC)nc2cc(CNCCN3CCCC3)c(OC)cc21 ?
Solution: 0.1 to 1 µM

Problem: Which IC50 is listed for COc1cc2c(cc1C#CCN1CCCC1)N=C(N)C21CCC1 ?
Solution: < 0.1 µM

Problem: Which IC50 is listed for COc1cc2c(cc1OCCCN1CCCC1)nc(NC1CCOCC1)n2C ?
Solution: 1 to 10 µM

Problem: Which IC50 is listed for CCn1c(NC)nc2cc(OCCCN3CCCC3)c(OC)cc21 ?
Solution: < 0.1 µM

Problem: Which IC50 is listed for CNc1nc2cc(OC[C@H](O)CN3CCC3)c(OC)cc2n1C ?
Solution: 0.1 to 1 µM

Problem: Which IC50 is listed for CNc1nc2cc(OCCCN3CCCC3)c(OC)cc2n1C(C)C ?
Solution: < 0.1 µM

Problem: Which IC50 is listed for CNC1=Nc2cc(C#CC(C)N3CCCC3)c(OC)cc2C12CCC2 (centres unmarked) ?
Solution: 0.1 to 1 µM

Problem: Which IC50 is listed for COc1cc2sc(N)nc2cc1OCCCN1CCCC1 ?
Solution: > 10 µM
